Hi there, I'd appreciate the recorded Percent Control for every entry that follows.
Tested on: NEK3;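 note: KINOMEscan scanMAX binding as percent activity remaining versus control; lower means stronger binding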
Settings: Compound Concentration (nM):1000
Give the quantity in %, number only.

For the compound Cl.O=C(O[C@H]1CN[C@H](C#Cc2cc3ncnc(Nc4ccc5c(cnn5Cc5ccccc5)c4)c3s2)C1)N1CCOCC1 [GSK200398A] , the measured Percent Control on NEK3 was 94

Recorded Percent Control for COc1cc(N2CCN(C(C)C)CC2)ccc1Nc1nc(Nc2ccc(F)cc2C(=O)NC[C@@H](O)CO)c2cc[nH]c2n1 [GSK1392956A] on NEK3 was 100

Per the reported NEK3 data, `CCc1ccc(Oc2nccc(-c3c(-c4ccc(F)cc4)ncn3C3CCNCC3)n2)cc1` has Percent Control of 100

Tested on NEK3: CC1=C(C(=O)Nc2ccc3[nH]ncc3c2)C(c2ccc3ccccc3c2)CC(=O)N1 (stereo not shown) [GSK270822A] . Observed Percent Control: 70

Item: COc1cc2ncn(-c3cc(O[C@H](C)c4ccccc4Cl)c(C(N)=O)s3)c2cc1OC [GSK237701A] | System: NEK3 | Percent Control: 85

Measured Percent Control (NEK3), entry COc1cc2ncnc(Nc3ccc4c(cnn4Cc4ccccc4)c3)c2cc1OC.Cl [GW282449A] : 100

Field Percent Control (system: NEK3) for entry O=C1Nc2ccc(C(=O)c3ccco3)cc2C1=Cc1cc(Cl)c(O)c(Cl)c1 [GW406108X] = 100
